Test system: CEM cells HIV-1 protection, formazan growth assay
protocol_description: NCI AIDS Antiviral Assay
run_parameters: measured here: growth of uninfected CEM cells
Where a SMILES comes first, the peptide text is derived from it. The star is where a group is joined. ONb = O=[N+]([O-])c1ccc(CO*)cc1; Boc = CC(C)(C)OC(=O)*
pIC50 values by entry
Friendly reminder that pIC50 comes from taking -log10 of the concentration in mol/L.

compound: CC(C)CC(NC(=O)OC(C)(C)C)C(=O)NC(CCC(=O)OCc1ccc([N+](=O)[O-])cc1)C(=O)OCc1ccc([N+](=O)[O-])cc1 (stereo not drawn) (Boc-Leu-Glu(ONb)-ONb; configuration not given here)
recorded_number: 4.97

Qu. Query pIC50 on CEM cells HIV-1 protection, formazan growth assay for `O=S1(=O)CCCS(=O)(=O)C(c2ccccc2)=C1c1ccccc1`
Ans. 4.30

Qu. Likewise for CCCc1cc(=O)oc2c3c(c4c(c12)OC(C)(C)C=C4)O[C@H](C)C(C)[C@@H]3O (stereo partly drawn) ?
Ans. 4.60

---

Test system: CEM cells HIV-1 protection, formazan growth assay
protocol_description: NCI AIDS Antiviral Assay
pEC50: −log10 of the molar value.
quantity_measured: pEC50

compound: CCc1ccccc1N=NC(=O)NNc1ccccc1CC
result: < 3.70

Qu. Requested field: pEC50. Item: Cc1cc(=O)[nH]c(NN2C(Cl)C(=O)C2c2c(O)ccc3ccccc23)n1 (centres undefined)
Ans. < 3.74

Qu. Likewise for CCCC/C=C(/C1OC(=O)N2CCC[C@H]2C1(C)C)[Si](C)(C)C (some centres undefined) ?
Ans. < 5.21

Qu. Likewise for Cc1cn(C2CCC(/C=N\O)O2)c(=O)[nH]c1=O (centres undefined) ?
Ans. < 3.70

---

Test system: CEM cells HIV-1 protection, formazan growth assay
protocol_description: NCI AIDS Antiviral Assay
run_parameters: measured here: growth of uninfected CEM cells
Protocol: The ability of compounds to protect human CEM cells from HIV-1 infection is measured as a screen for new compounds capable of inhibiting the HIV virus. Five concentrations of drug were tested on uninfected and infected cells and cell growth was measured using a soluble formazan assay. […] Compounds that provided at least 50% protection were retested. Compounds that provided at least 50% protection on retest were listed as moderately active. […]
pIC50: −log10 of the molar value. Where a SMILES comes first, the peptide text is derived from it.
quantity_measured: pIC50

Check out these entries, answers already filled in.
molecule: CC(C)(C)OC(=O)NCCCCC(NC(=O)c1ccccc1)C(N)=O (stereo not drawn)
target_entity: CEM cells HIV-1 protection, formazan growth assay
pIC50: < 3.70
//
molecule: c1ccc(CSCCC(SCc2ccccc2)SCc2ccccc2)cc1
target_entity: CEM cells HIV-1 protection, formazan growth assay
pIC50: < 3.70
//
molecule: CCOC(=O)c1[nH]c2ccccc2c1C(=O)C[C@H](NC(=O)C(F)(F)F)C(=O)OC
target_entity: CEM cells HIV-1 protection, formazan growth assay
pIC50: < 3.70
//
molecule: O=C(CC(c1ccccc1)C(Sc1ccccc1)(Sc1ccccc1)Sc1ccccc1)c1ccccc1 (stereo not drawn)
target_entity: CEM cells HIV-1 protection, formazan growth assay
pIC50: < 4.00
//
molecule: CCC(C)C(NC(=O)C(CCCCN)NC(=O)CNC(=O)C(NC(=O)C(NC(=O)C(NC(=O)C(Cc1ccccc1)NC(=O)C(C)NC(=O)C(CCCNC(=N)N)NC(=O)CNC(=O)C1CCCN1C(=O)CNC(=O)C(CCCNC(=N)N)NC(=O)C(CCC(N)=O)NC(=O)C(NC(=O)C(CCCNC(=N)N)NC(=O)C(NC(=O)C(COC1OC(CO)C(O)C(O)C1NC(C)=O)NC(=O)C(CCCCN)NC(=O)C(CCCNC(=N)N)NC(=O)C(NC(=O)C(CC(N)=O)NC(=O)C(N)CC(N)=O)C(C)O)C(C)CC)C(C)CC)C(C)C)C(C)OC1OC(CO)C(O)C(O)C1NC(C)=O)C(C)CC)C(=O)NCOC#N (stereo not drawn)
target_entity: CEM cells HIV-1 protection, formazan growth assay
pIC50: < 4.56
//
molecule: COC(=O)C(/C(=N/N)C(=O)Nc1cc(Cl)c(Cl)cc1Cl)c1nc2ccc(Cl)cc2[nH]c1=O (stereo not drawn)
target_entity: CEM cells HIV-1 protection, formazan growth assay
pIC50: < 4.30
//
molecule: CN(C)c1nc(NC23CC4CC(CC(C4)C2)C3)nc(N(C)C)n1
target_entity: CEM cells HIV-1 protection, formazan growth assay
pIC50: 5.30
//
molecule: c1ccc(C2C3=C(CCCC3)Nc3nc4cc5ccccc5cc4n32)cc1 (stereo not drawn)
target_entity: CEM cells HIV-1 protection, formazan growth assay
pIC50: < 3.70

Qu. Requested field: pIC50. Item: `O=[N+]([O-])C(C=C(n1nnc2ccccc21)n1nnc2ccccc21)=C(n1nnc2ccccc21)n1nnc2ccccc21`
Ans. < 3.70

Qu. Likewise for `CCO/C(CCn1[nH]c(=O)c(Cl)c(Cl)c1=O)=N\NC(=O)C(=O)NN` ?
Ans. < 5.15

Qu. Likewise for `CCOC(=O)C1=C(c2ccccc2)NC(c2ccccc2)=C(C(=O)OCC)c2c1c(=O)cc[nH]c2=O` ?
Ans. < 4.27

Qu. Likewise for `O=C1N[C@H]2c3c(Cl)sc(Cl)c3[C@@H](O)[C@H]2O1` ?
Ans. < 3.70

Qu. Likewise for `CC1=NN(C(=O)Cc2ccccc2)C(=O)/C1=C\c1cccc(O)c1` ?
Ans. < 4.65

Qu. Likewise for `Cc1cccc(C(C)(C)C)c1NC(=O)CCc1n[nH]c(=S)o1` ?
Ans. 3.16

Qu. Likewise for `CN(C)c1ccc(/C=N/Nc2nc3ccccc3c(=O)n2-c2ccccc2)cc1` ?
Ans. < 4.00

Qu. Likewise for `O=C(c1ccco1)N(C(=S)N1CCN(c2ccccc2)CC1)C1CCCCC1` ?
Ans. 4.90

Qu. Likewise for `Cn1c2ccccc2c2nnc(N/N=C/c3ccc([N+](=O)[O-])o3)nc21` ?
Ans. < 3.70

Qu. Likewise for `CCOCCN(Cc1ccc(CN(CCOCC)C(=O)C(Cl)Cl)cc1)C(=O)C(Cl)Cl` ?
Ans. < 3.70

Qu. Likewise for `COc1cc(-c2cc(CCC(=O)Nc3ccccc3[N+](=O)[O-])n(-c3ccc([N+](=O)[O-])cc3[N+](=O)[O-])n2)ccc1O` ?
Ans. < 4.32

Qu. Likewise for CCCCC(/C=C\COC1CCCCO1)=C/C(=O)OCC (stereo not drawn) ?
Ans. 4.11

Qu. Likewise for Clc1ccccc1C1N2CCCCC2[C@@H]2c3[nH]c4ccccc4c3CCN12 (stereo partly drawn) ?
Ans. < 4.30

Qu. Likewise for `Cc1cc(=O)c2cc3ccc4c5[nH]c(C)cc(=O)c5cc5ccc(c2[nH]1)c3c54` ?
Ans. 4.47

Qu. Likewise for CCC(C)C(NC(=O)C(NC(=O)C(CC(N)=O)NC(=O)CN)C(C)O)C(=O)NC(C(=O)NC(C)C(=O)NC(C(=O)NC(CCC(=O)O)C(=O)NC(CC(C)C)C(=O)NC(CC(=O)O)C(=O)NC(C(=O)NC(Cc1ccc(O)cc1)C(=O)N1CCCC1C(=O)O)C(C)O)C(C)C)C(C)C (stereo not drawn) (H-GNTIVAVELDTYP-OH; configuration not given here) ?
Ans. 4.30

Qu. Likewise for `CCCCNC(=S)Nc1nc(C(=O)NNC(=O)c2ccccc2)cs1` ?
Ans. 4.95

Qu. Likewise for CN(C)CCC1(c2ccccc2)C=Cc2ccccc21 (stereo not drawn) ?
Ans. 3.97

Qu. Likewise for CCCOc1cnc([C@H]2CCC3[C@@H]4CC=C5C[C@@H](OC(C)=O)CC[C@]5(C)C4CC[C@@]32C)s1 (stereo partly drawn) ?
Ans. < 4.26

Qu. Likewise for COc1ccc(C2SC(N)=Nc3c2c(C)nn3C(=O)Cc2ccccc2)cc1 (stereo not drawn) ?
Ans. 3.45

Qu. Likewise for `CCOC(=O)C#CC(=O)OCC` ?
Ans. 4.82

---

Test system: CEM cells HIV-1 protection, formazan growth assay
protocol_description: NCI AIDS Antiviral Assay
run_parameters: measured here: growth of uninfected CEM cells
quantity_measured: IC50

chem_smiles: C1=Cc2nc1c(-c1ccccc1)c1ccc([n-]1)c(-c1ccccc1)c1nc(c(-c3ccccc3)c3ccc([n-]3)c2-c2ccccc2)C=C1.[Zn+2]
IC50: > 27.5 µM

Qu. Requested field: IC50. Item: `CCCCN(C=O)CCc1ccccc1`
Ans. > 1230 µM

Qu. Likewise for `OCc1cn(C(c2ccccc2)(c2ccccc2)c2ccccc2)cn1` ?
Ans. > 200 µM

Qu. Likewise for `O=c1c2ccccc2nc(-c2ccccc2)n1NC(=S)Nc1ccc(Cl)cc1[N+](=O)[O-]` ?
Ans. > 15.8 µM

Qu. Likewise for `C=CCc1c(O)c2nsnc2c2nsnc12` ?
Ans. > 200 µM
